- test.system: Receptor-type tyrosine-protein phosphatase beta (Homo sapiens, UniProt P23467)
- Sequence (P23467 whole entry): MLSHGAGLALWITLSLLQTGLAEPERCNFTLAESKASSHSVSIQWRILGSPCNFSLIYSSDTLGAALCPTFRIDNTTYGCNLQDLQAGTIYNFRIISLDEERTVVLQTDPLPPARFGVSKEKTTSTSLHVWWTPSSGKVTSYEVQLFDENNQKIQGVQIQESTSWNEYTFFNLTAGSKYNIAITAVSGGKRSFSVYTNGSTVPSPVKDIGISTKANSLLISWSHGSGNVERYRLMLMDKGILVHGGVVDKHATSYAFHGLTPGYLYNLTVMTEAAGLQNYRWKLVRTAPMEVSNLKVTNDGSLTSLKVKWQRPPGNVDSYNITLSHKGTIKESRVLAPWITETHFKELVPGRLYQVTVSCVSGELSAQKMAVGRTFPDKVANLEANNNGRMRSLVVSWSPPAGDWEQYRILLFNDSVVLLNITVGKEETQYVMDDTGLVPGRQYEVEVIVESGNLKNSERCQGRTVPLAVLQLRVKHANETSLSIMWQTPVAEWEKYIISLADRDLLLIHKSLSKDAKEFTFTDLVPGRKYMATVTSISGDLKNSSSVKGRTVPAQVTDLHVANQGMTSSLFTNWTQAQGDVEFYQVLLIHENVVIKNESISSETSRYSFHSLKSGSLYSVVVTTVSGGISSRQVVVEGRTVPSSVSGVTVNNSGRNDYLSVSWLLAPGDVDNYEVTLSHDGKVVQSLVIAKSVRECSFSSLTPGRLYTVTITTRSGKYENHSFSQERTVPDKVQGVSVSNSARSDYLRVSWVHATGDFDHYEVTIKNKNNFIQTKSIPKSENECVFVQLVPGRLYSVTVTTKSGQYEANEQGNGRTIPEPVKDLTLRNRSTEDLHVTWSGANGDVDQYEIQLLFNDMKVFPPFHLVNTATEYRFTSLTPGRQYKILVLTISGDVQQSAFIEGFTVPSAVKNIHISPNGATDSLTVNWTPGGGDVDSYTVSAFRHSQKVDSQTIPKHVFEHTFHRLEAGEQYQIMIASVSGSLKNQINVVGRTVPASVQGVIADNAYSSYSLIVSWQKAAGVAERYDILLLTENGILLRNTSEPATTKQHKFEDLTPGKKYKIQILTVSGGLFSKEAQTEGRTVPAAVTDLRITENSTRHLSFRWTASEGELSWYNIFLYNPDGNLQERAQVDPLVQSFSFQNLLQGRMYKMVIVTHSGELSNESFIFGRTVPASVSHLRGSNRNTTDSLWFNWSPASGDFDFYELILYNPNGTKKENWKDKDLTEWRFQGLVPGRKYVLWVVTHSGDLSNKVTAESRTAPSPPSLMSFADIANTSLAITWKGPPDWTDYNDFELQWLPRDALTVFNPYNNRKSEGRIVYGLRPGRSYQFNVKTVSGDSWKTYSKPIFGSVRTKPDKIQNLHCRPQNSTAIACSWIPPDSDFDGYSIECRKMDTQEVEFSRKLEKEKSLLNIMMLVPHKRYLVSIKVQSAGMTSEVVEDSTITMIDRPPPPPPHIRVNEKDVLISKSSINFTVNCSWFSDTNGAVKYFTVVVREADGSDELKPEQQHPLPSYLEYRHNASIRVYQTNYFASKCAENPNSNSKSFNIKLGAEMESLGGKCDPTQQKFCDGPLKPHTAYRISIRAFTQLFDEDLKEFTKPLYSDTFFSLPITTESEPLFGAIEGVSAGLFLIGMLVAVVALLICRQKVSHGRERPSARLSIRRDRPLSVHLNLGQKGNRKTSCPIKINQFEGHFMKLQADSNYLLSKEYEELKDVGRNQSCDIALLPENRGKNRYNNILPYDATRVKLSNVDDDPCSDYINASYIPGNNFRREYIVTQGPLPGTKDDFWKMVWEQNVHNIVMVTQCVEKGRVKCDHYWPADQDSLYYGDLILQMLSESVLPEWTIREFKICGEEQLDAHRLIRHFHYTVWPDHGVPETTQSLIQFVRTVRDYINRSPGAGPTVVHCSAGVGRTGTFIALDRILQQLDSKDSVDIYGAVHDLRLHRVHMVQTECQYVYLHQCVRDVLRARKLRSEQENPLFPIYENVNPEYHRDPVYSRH
- measurement.protocol: Inhibition of PTP-beta receptor using 3-O-Methylfluorescein phosphate as substrate incubated for 10 mins prior to substrate addition by fluorometry
reported.endpoint: IC50 (nM)
// note: answer is a bare numeric in nM

O=C(O)/C=C/c1ccc[c]([Sb](=[O])([OH])[OH])c1 770

Alright, here's another compound for you.
For this compound ( O=C(O)CCc1ccc[c]([Sb](=[O])([OH])[OH])c1 ), measured IC50 is 1620
